Each recorded value in this set is attributed to the supplement of paper PMC10724198.

System: Saccharomyces cerevisiae
Assay: protein stability index of tFT-peptide fusion (C-terminal peptide) (PSI (0-1 scale)); higher = more stable (slower turnover)
Conditions: genetic background: cdc34-1; temperature: 37 C
I'd appreciate it if you could label each record using protein stability index and these ranges: low-valued = under 0.2, mid-valued = from 0.2 up to 0.5, high-valued = 0.5 and over

- querySequence: "VGTIVLTCIEVN"
  labelValue: "low-valued"

Determine which band this sequence sits in: SFFVCAGFWVLC mid-valued

Determine which band this sequence sits in: PPPPPPPFLFFL high-valued

Determine which band this sequence sits in: LFSTRRWISVCA low-valued

* * *

Tested on: Saccharomyces cerevisiae;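 note: PSI is a weighted mean of sequencing reads over stability bins, variants kept only with over 10 reads, mCherry proximal and sfGFP distal, peptide attached via GGGS linker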
Experiment: protein stability index of tFT-peptide fusion (C-terminal peptide) (PSI (0-1 scale)); higher = more stable (slower turnover)
Conditions: genetic background: cdc34-1; temperature: 37 C
Decide using protein stability index: a value greater than or equal to 0.5 is 1, a smaller one is 0.

- querySequence: "LSCFCLFCLSFC"
  labelValue: 1

Could you tell me if the measured protein stability index of PPAPTPFPPSPR reaches 0.5 or more? 1

Could you tell me if the measured protein stability index of MALAVRVVKCGA reaches 0.5 or more? 0

Could you tell me if the measured protein stability index of LLSFSQLGYFVL reaches 0.5 or more? 1

Could you tell me if the measured protein stability index of VQVLVAIMDGRM reaches 0.5 or more? 0

Could you tell me if the measured protein stability index of VLVCYFCRYISH reaches 0.5 or more? 0

Could you tell me if the measured protein stability index of VFLDCCLRVFVD reaches 0.5 or more? 0

Could you tell me if the measured protein stability index of WVRLGRSWTTVG reaches 0.5 or more? 1

Could you tell me if the measured protein stability index of IVFFVLFRFWRF reaches 0.5 or more? 0

Could you tell me if the measured protein stability index of VGFYGRWVCVAC reaches 0.5 or more? 0

Could you tell me if the measured protein stability index of VFLPVMVFFTFS reaches 0.5 or more? 0

Could you tell me if the measured protein stability index of QVSHLFAAVQLA reaches 0.5 or more? 1

Could you tell me if the measured protein stability index of TLDCKFGRGGIG reaches 0.5 or more? 0

Could you tell me if the measured protein stability index of VAFILVVCKGIG reaches 0.5 or more? 0

Could you tell me if the measured protein stability index of ICFFQGVVVLFR reaches 0.5 or more? 0

Could you tell me if the measured protein stability index of FLRLSFLIFPLH reaches 0.5 or more? 1
